Experiment: Primary qHTS for inhibitors of nuclear receptor binding SET domain protein 2 (NSD2) in an RCH-ACV wild type WT cells (2C) (AID 1645877); note: nearly all actives have a fitted effect of over 70% in size; note: potency is the fitted concentration of half-maximal effect
Conditions: RCH-ACV (leukaemia line) NSD2 WT (2C) viability, CellTiter-Glo, 72 h; series mostly up to 44.9 µM
Records with an inconclusive call do not appear. Calls of active or inactive are those of the source. Calls come from the whole dose curve; as a rule, active = well fitted inhibition curve with a large enough effect; inconclusive = small, poorly fitted or top-dose-only effect; inactive = no such curve, though single readings can be large or run the other way.
reported.metric: Potency

| compound | result |
| --- | --- |
| COC1CCN(C(=O)c2cc(Cc3n[nH]c(=O)c4ccccc34)ccc2F)CC1 | 8.33 µM (active) |
| Cc1ccc(N2CCN(CCC3NC(=O)c4ccccc43)CC2)cc1C (configuration not stated) | inactive |
| Cc1nc(C(=O)N2CCC[C@H]2Cc2nnc(-c3ccccc3)o2)c(-c2ccccc2F)s1 | inactive |
| C=C1CC2OC(=O)C(COC)C2C(OC(=O)/C(C)=C\C)CC2(C)OC1=CC2=O (configuration not stated) | 2.26 µM (active) |
| CCCC1(CCC)CCC2(CCN(CCCN(CC)CC)C2)CC1 | 2.09 µM (active) |
| C=C(COC(=O)C(O)C(O)CN)C12OC1C1(C)C(=CC2=O)C(O)C(O)CC1C (configuration not stated) | inactive |
| COc1cc(F)c(F)c(Nc2ccc(I)cc2F)c1NS(=O)(=O)C1(CC(O)CO)CC1 (configuration not stated) | 25.8 µM (active) |
| C[C@@H]1O[C@@H](O[C@H]2[C@@H](OC(=O)[C@]34CCC(C)(C)CC3C3=CCC5[C@@]6(C)C[C@H](O)[C@H](O[C@@H]7O[C@H](CO)[C@@H](O)[C@H](O)[C@H]7O[C@@H]7OC[C@@H](O)[C@H](O)[C@H]7O)[C@@](C)(C(=O)O)C6CC[C@@]5(C)[C@]3(C)CC4)OC[C@H](O)[C@@H]2O)[C@H](O)[C@H](O)[C@H]1O[C@@H]1OC[C@@H](O)[C@H](O)[C@H]1O (some centres not stated) | 2.18 µM (active) |
| CC(=O)CC(=O)Nc1ccc(Cl)c(C(F)(F)F)c1 | 10.3 µM (active) |
| CNc1ccc([N+](=O)[O-])c(Nc2ccc3[nH]ncc3c2)n1 | 7.28 µM (active) |
| Cc1cc(F)ccc1[C@H]1C[C@@H](N2CCN3C(=O)CC[C@H]3C2)CCN1C(=O)N(C)[C@H](C)c1cc(C(F)(F)F)cc(C(F)(F)F)c1 | 14.5 µM (active) |
| Oc1ccc(-c2cnc3ccc(NCc4ccco4)nn23)cc1 | 1.83 µM (active) |
| C=CC(=O)N1CCC[C@@H](n2nc(-c3cccc(C(=O)Nc4ccc(C(C)C)c(C)c4)c3)c3c(N)ncnc32)C1 | 9.16 µM (active) |
| N#Cc1ccc(COC[C@H]2O[C@@H](n3c(NCc4ccc(Cl)c(Cl)c4)nc4c(N)ncnc43)[C@H](O)[C@@H]2O)cc1 | 9.34 µM (active) |
| Cc1nc(C#Cc2ccnc(Cl)c2)c(C)n1-c1ccc(OC(F)(F)F)cc1 | 10.3 µM (active) |
| C=C1/C(=C/C=C2\CCC[C@]3(C)[C@@H]([C@H](C)CC[C@@H](O)C(C)(C)O)CC[C@@H]23)C[C@@H](O)C[C@@H]1O | 10.3 µM (active) |
| c1cc(NCCc2c[nH]c3ccccc23)cc(Nc2ccncc2)c1 | 3.25 µM (active) |

* * *

Biological target: Phenylethanolamine N-methyltransferase (Homo sapiens)
Experiment: Confirmatory Screen for Target Class Profiling of Small Molecule Inhibitors of Methyltransferases (AID 1745852)
Details: MTase-Glo luminescence, SAH detection, recombinant enzyme; measured here: PNMT max response; stronger effect = lower value
# activity annotations

| compound | study.system | activity (%) |
| --- | --- | --- |
| N#Cc1ccc(COC[C@H]2O[C@@H](n3c(NCc4ccc(Cl)c(Cl)c4)nc4c(N)ncnc43)[C@H](O)[C@@H]2O)cc1 | Phenylethanolamine N-methyltransferase (Homo sapiens) | -74.2 |
| C=C1C(=O)OC2/C=C(\C)CC/C=C(\C=O)C(OC)C(OC(=O)C(C)CC)C12 (stereo not given) | Phenylethanolamine N-methyltransferase (Homo sapiens) | -0.332 |
| C/C=C(/C)C(=O)O[C@H]1C=C(CO)C(=O)[C@H](OC(=O)/C(C)=C/CO)[C@H]1C(C)C | Phenylethanolamine N-methyltransferase (Homo sapiens) | -1.6 |
| C=C1C(=O)OC2/C=C(\CO)CC/C=C(\C=O)C(OC)C(OC(=O)C(C)CC)C12 (stereo not given) | Phenylethanolamine N-methyltransferase (Homo sapiens) | 1.39 |
| CC1(C)CCC(C)(C)c2cc(C#Cc3ccc(C(=O)O)cc3)ccc21 | Phenylethanolamine N-methyltransferase (Homo sapiens) | -5.22 |
| C/C(=N\N=C(N)N)c1cc(NC(=O)CCCCCCCCC(=O)Nc2cc(/C(C)=N/N=C(N)N)cc(/C(C)=N/N=C(N)N)c2)cc(/C(C)=N/N=C(N)N)c1 | Phenylethanolamine N-methyltransferase (Homo sapiens) | -75.4 |
| C[C@H](Oc1cc(-c2cnn(C3CCNCC3)c2)cnc1N)c1c(Cl)ccc(F)c1Cl | Phenylethanolamine N-methyltransferase (Homo sapiens) | -61.8 |
| C=C1C(=O)OC2C1CCC1(C)C(O)CCC(=C)C21 (stereo not given) | Phenylethanolamine N-methyltransferase (Homo sapiens) | -1.43 |
| Cc1cc(NC(=O)NCCN2CCC(O)(Cc3ccccc3)CC2)c2ccccc2n1 | Phenylethanolamine N-methyltransferase (Homo sapiens) | 0.991 |
| O=C1NC(=O)C(c2cnc3ccccn23)=C1c1cn2c3c(cc(F)cc13)CN(C(=O)N1CCCCC1)CC2 | Phenylethanolamine N-methyltransferase (Homo sapiens) | -20.8 |
| COc1ccc(CCN(C)CCCOc2nsc(-c3ccccc3)n2)cc1OC | Phenylethanolamine N-methyltransferase (Homo sapiens) | -10.5 |
| Cn1cc(-c2ccc(F)c(C(F)(F)F)c2)nc1C1CCN(c2ncnc3[nH]ncc23)CC1 | Phenylethanolamine N-methyltransferase (Homo sapiens) | -1.21 |
| NC(=O)c1ccccc1Nc1ccnc(Nc2cccc(O)c2)n1 | Phenylethanolamine N-methyltransferase (Homo sapiens) | -7.27 |
| CN(C)[C@@H]1CCc2[nH]c3ccc(NC(=O)c4ccc(F)cc4)cc3c2C1 | Phenylethanolamine N-methyltransferase (Homo sapiens) | -1.89 |
| CC(C)(C)c1ccc(C(=O)Nc2cc(Cl)c(Br)cc2C(=O)O)cc1 | Phenylethanolamine N-methyltransferase (Homo sapiens) | -22 |
| COc1cc2ncnc(Nc3cccc(I)c3)c2cc1OC | Phenylethanolamine N-methyltransferase (Homo sapiens) | -56.9 |
| C=C1C(=O)O[C@@H]2C3=C(C)CCC[C@]3(C)CC[C@@]12O | Phenylethanolamine N-methyltransferase (Homo sapiens) | -3.37 |
| N#CSc1cc(SC#N)c(N)nc1N | Phenylethanolamine N-methyltransferase (Homo sapiens) | -48.1 |
| CC(F)(F)CN1CCOc2c(nn(-c3ccccc3Cl)c2-c2ccc(Cl)cc2)C1=O | Phenylethanolamine N-methyltransferase (Homo sapiens) | -3.99 |
| COc1ccccc1N1CCN(c2ncnc3n[nH]c(Br)c23)CC1 | Phenylethanolamine N-methyltransferase (Homo sapiens) | -19.8 |
| NC(N)=NC(=O)c1cnn(-c2cccc3ncccc23)c1C1CC1 | Phenylethanolamine N-methyltransferase (Homo sapiens) | -5.56 |
| O=C(c1ccccc1)c1c(O)cc(O)cc1O[C@@H]1O[C@H](CO)[C@@H](O)[C@H](O)[C@H]1O | Phenylethanolamine N-methyltransferase (Homo sapiens) | -6.01 |
| C=C1C(=O)OC2/C=C(/C)C3=CC(=O)C(C)(CC(OC(=O)/C(C)=C/COC(C)=O)C12)O3 (stereo not given) | Phenylethanolamine N-methyltransferase (Homo sapiens) | -3.18 |
| c1cc(NCCc2c[nH]c3ccccc23)cc(Nc2ccncc2)c1 | Phenylethanolamine N-methyltransferase (Homo sapiens) | -13.2 |
| C=C1C(=O)O[C@@H]2/C=C(\CO)CC/C=C(/C=O)C[C@H](O)[C@@H]12 | Phenylethanolamine N-methyltransferase (Homo sapiens) | 0.589 |
| COc1ccccc1OCCNCC(O)CCOc1cccc2[nH]c3ccccc3c12 (stereo not given) | Phenylethanolamine N-methyltransferase (Homo sapiens) | -93.1 |
| CC#C[C@@H](CC(=O)O)c1ccc(OCc2cccc(-c3ccc(C(F)(F)F)cc3)c2)cc1 | Phenylethanolamine N-methyltransferase (Homo sapiens) | 3.83 |
| C=CC(=O)Nc1ccc2ncnc(Nc3cccc(Br)c3)c2c1 | Phenylethanolamine N-methyltransferase (Homo sapiens) | -49.9 |
| CC(C)(C)Sc1c(CC(C)(C)C(=O)O)n(Cc2ccc(Cl)cc2)c2ccc(OCc3ccc4ccccc4n3)cc12 | Phenylethanolamine N-methyltransferase (Homo sapiens) | -5.18 |
| CN(C)CCOC(C)(c1ccccc1)c1ccc(Cl)cc1 (stereo not given) | Phenylethanolamine N-methyltransferase (Homo sapiens) | -3.91 |
| CCNC(=O)C#Cc1ccc2c(C(=Nc3ccc(CN(C)C)cc3)c3ccccc3)c(O)[nH]c2c1 | Phenylethanolamine N-methyltransferase (Homo sapiens) | -19.5 |
| Cc1nc(C#Cc2ccnc(Cl)c2)c(C)n1-c1ccc(F)cc1 | Phenylethanolamine N-methyltransferase (Homo sapiens) | -47.9 |
| CS(=O)(=O)Nc1ccc2oc3c(OC(F)F)ccc(C(=O)Nc4c(Cl)cncc4Cl)c3c2c1 | Phenylethanolamine N-methyltransferase (Homo sapiens) | -4.54 |
| COC1C=C(C)C(O)(CO)C2(C)CCCC(C)(C)C12 (stereo not given) | Phenylethanolamine N-methyltransferase (Homo sapiens) | -2.37 |
| Cc1ccc(CNc2ncnc3ccc(-c4ccc(CO)o4)cc23)o1 | Phenylethanolamine N-methyltransferase (Homo sapiens) | -9.87 |
| O=C(Nc1ccc(C(F)(F)F)cn1)N1CCN(c2ncccc2C(F)(F)F)CC1 | Phenylethanolamine N-methyltransferase (Homo sapiens) | -60.8 |
| Cc1[nH]c2ccccc2c1CCNCc1ccc(/C=C/C(=O)NO)cc1 | Phenylethanolamine N-methyltransferase (Homo sapiens) | -2.09 |
| COc1cccc(-c2cn(-c3ccc(CCN4CCC(O)CC4)cc3)c3ncnc(N)c23)c1 | Phenylethanolamine N-methyltransferase (Homo sapiens) | -84.3 |
| C=C1C(=O)O[C@@H]2/C=C(\CO)CC/C=C(/C=O)C[C@@H](O)[C@@H]12 | Phenylethanolamine N-methyltransferase (Homo sapiens) | -2.71 |
| CCCc1cc2c(N3CCN(C4=NCC(C)(C)S4)CC3)ncnc2s1 | Phenylethanolamine N-methyltransferase (Homo sapiens) | -5.27 |
